test system: Staphylococcus aureus; assay: In vitro minimum inhibitory concentration against Staphylococcus aureus ATCC 29213; type: functional
REPORTED ENDPOINT: MIC (µg/mL)
Give bare numbers, in µg/mL.

- LINE NOTATION: "CCN(CCCN(CC)C[C@@H](O)CO[C@@H]1[C@@H](O)[C@H](N)C[C@H](N)[C@H]1O[C@H]1O[C@H](CN)[C@@H](O)[C@H](O)[C@H]1N)C[C@@H](O)CO[C@@H]1[C@@H](O)[C@H](N)C[C@H](N)[C@H]1O[C@H]1O[C@H](CN)[C@@H](O)[C@H](O)[C@H]1N"
  RECORDED NUMBER: 3.1

Could you now consider this next compound?
Give recorded MIC with Staphylococcus aureus for the following compound: `CN(CCCCN(C)C[C@@H](O)CO[C@@H]1[C@@H](O)[C@H](O[C@H]2O[C@H](CN)[C@@H](O)C[C@H]2N)[C@@H](N)C[C@H]1N)C[C@H](O)CO[C@@H]1[C@@H](O)[C@H](O[C@@H]2O[C@H](CN)C[C@H](O)[C@H]2N)[C@@H](N)C[C@H]1N`
0.6

The origin of these recorded values is ChEMBL document CHEMBL1143542.
